Data origin, for the record: ChEMBL document CHEMBL1149183

ASSAYED_TARGET: Endothelin receptor type B (Homo sapiens)
ASSAY_TEXT: Antagonist activity towards human recombinant Endothelin B receptor expressed in chinese hamster ovary (CHO) cells determined using [125I]ET1 as radioligand
pIC50: −log10 of the molar value.
ATTRIBUTE_MEASURED: pIC50

1. COc1ccc(CN2C(=O)CN[C@](c3ccccc3)([C@H](Oc3nc(C)cc(C)n3)C(=O)O)c3ccccc32)cc1 (racemic) = 7.65
2. Cc1cc(C)nc(O[C@H](C(=O)O)[C@@]2(c3ccccc3)NCC(=O)N(Cc3c(F)cc(F)cc3F)c3ccccc32)n1 (racemic) = 7.08
3. Cc1cc(C)cc(O[C@H](C(=O)O)[C@@]2(c3ccccc3)NCC(=O)N(Cc3c(F)cc(F)cc3F)c3ccccc32)c1 (racemic) = 6.25
4. Cc1cc(C)nc(O[C@H](C(=O)O)[C@@]2(c3ccccc3)NCC(=O)N(Cc3cc(F)c(F)c(F)c3)c3ccccc32)n1 (racemic) = 7.60
5. COc1cc(OC)cc(O[C@H](C(=O)O)[C@@]2(c3ccccc3)NCC(=O)N(Cc3c(Cl)cccc3Cl)c3ccccc32)c1 (racemic) = 6.41
6. Cc1cc(C)nc(O[C@H](C(=O)O)[C@@]2(c3ccccc3)NCC(=O)N(Cc3ccc(C(C)(C)C)cc3)c3ccccc32)n1 (racemic) = 7.62

[a] Cc1cc(C)nc(O[C@H](C(=O)O)[C@@]2(c3ccccc3)NCC(=O)N(CC3CCCCC3)c3ccccc32)n1 (racemic)
[b] Cc1cccc(O[C@H](C(=O)O)[C@@]2(c3ccccc3)NCC(=O)N(Cc3c(Cl)cccc3Cl)c3ccccc32)c1 (racemic)
[c] Cc1cc(C)nc(O[C@H](C(=O)O)[C@@]2(c3ccccc3)NCC(=O)N(Cc3ccc(F)c(F)c3F)c3ccccc32)n1 (racemic)
[d] CCCCc1ccc(CN2C(=O)CN[C@](c3ccccc3)([C@H](Oc3nc(C)cc(C)n3)C(=O)O)c3ccccc32)cc1 (racemic)
Ordering: ascending pIC50. In plain terms: list the labels in the order you were asked to.
b, a, c, d
(b: 6.13, a: 7.09, c: 7.30, d: 7.95)

[I] Cc1cc(C)nc(O[C@H](C(=O)O)[C@@]2(c3ccccc3)NCC(=O)N(Cc3ccccc3Cl)c3ccccc32)n1 (racemic)
[II] CCc1cc(CC)nc(O[C@H](C(=O)O)[C@@]2(c3ccccc3)NCC(=O)N(C)c3ccccc32)n1 (racemic)
Which has the smaller recorded pIC50, I or II ? Output the label that corresponds to your choice.
II
(II: 6.18, I: 7.32)

* * *

ASSAYED_TARGET: Endothelin receptor type B (Homo sapiens)
ASSAY_TEXT: Antagonist activity towards human recombinant Endothelin B receptor expressed in chinese hamster ovary (CHO) cells determined using [125I]ET1 as radioligand
pIC50: −log10 of the molar value.
ATTRIBUTE_MEASURED: pIC50

Worked set:
1. COC(=O)c1ccc(CN2C(=O)CN[C@](c3ccccc3)([C@H](Oc3nc(C)cc(C)n3)C(=O)O)c3ccccc32)cc1 (racemic) = 7.15
2. Cc1cc(C)nc(O[C@H](C(=O)O)[C@@]2(c3cccc(-c4ccccc4)c3)NCC(=O)N(Cc3c(F)cc(F)cc3F)c3ccccc32)n1 (racemic) = 7.05

[1] CCCCc1cccc([C@]2([C@H](Oc3nc(C)cc(C)n3)C(=O)O)NCC(=O)N(Cc3ccc(OC)cc3)c3ccccc32)c1 (racemic)
[2] Cc1cc(C)nc(O[C@H](C(=O)O)[C@@]2(c3ccccc3)NCC(=O)N(Cc3c(F)ccc(F)c3F)c3ccccc32)n1 (racemic)
Looking at 1 and 2 , which one comes out lower in pIC50 terms? Please respond with the label that marks your chosen entry.
1

* * *

ASSAYED_TARGET: UniProt P25101
ASSAY_TEXT: Antagonist activity towards human recombinant Endothelin A receptor expressed in chinese hamster ovary (CHO) cells determined using [125I]ET1 as radioligand
ATTRIBUTE_MEASURED: IC50 (nM)

1) Cc1cc(C)nc(O[C@H](C(=O)O)[C@@]2(c3ccccc3)NCC(=O)N(Cc3ccc(C(=O)O)cc3)c3ccccc32)n1 (racemic) = 123
2) CN1C(=O)CN[C@](c2ccccc2)([C@H](Oc2ncc(Br)cn2)C(=O)O)c2ccccc21 (racemic) = 927
3) CCCCc1cccc([C@]2([C@H](Oc3nc(C)cc(C)n3)C(=O)O)NCC(=O)N(Cc3ccc(OC)cc3)c3ccccc32)c1 (racemic) = 7.9
4) COc1ccc(CN2C(=O)CN[C@](c3cccc(C(F)(F)F)c3)([C@H](Oc3nc(C)cc(C)n3)C(=O)O)c3ccccc32)cc1 (racemic) = 24.9
5) Cc1ccc(O[C@H](C(=O)O)[C@@]2(c3ccccc3)NCC(=O)N(Cc3c(Cl)cccc3Cl)c3ccccc32)cc1 (racemic) = 156

[A] Cc1cc(C)nc(O[C@H](C(=O)O)[C@@]2(c3ccccc3)NCC(=O)N(Cc3cccc(Br)c3)c3ccccc32)n1 (racemic)
[B] COc1ccc(CN2C(=O)CN[C@](C3CCCCC3)([C@H](Oc3nc(C)cc(C)n3)C(=O)O)c3ccccc32)cc1 (racemic)
[C] Cc1cc(C)nc(O[C@H](C(=O)O)[C@@]2(c3ccccc3)NCC(=O)N(CCCc3ccccc3)c3ccccc32)n1 (racemic)
# ascending order, key=IC50 // rank by listing labels in the order requested
A, C, B

* * *

ASSAYED_TARGET: Endothelin-1 receptor (Homo sapiens, UniProt P25101)
Sequence (P25101 whole entry): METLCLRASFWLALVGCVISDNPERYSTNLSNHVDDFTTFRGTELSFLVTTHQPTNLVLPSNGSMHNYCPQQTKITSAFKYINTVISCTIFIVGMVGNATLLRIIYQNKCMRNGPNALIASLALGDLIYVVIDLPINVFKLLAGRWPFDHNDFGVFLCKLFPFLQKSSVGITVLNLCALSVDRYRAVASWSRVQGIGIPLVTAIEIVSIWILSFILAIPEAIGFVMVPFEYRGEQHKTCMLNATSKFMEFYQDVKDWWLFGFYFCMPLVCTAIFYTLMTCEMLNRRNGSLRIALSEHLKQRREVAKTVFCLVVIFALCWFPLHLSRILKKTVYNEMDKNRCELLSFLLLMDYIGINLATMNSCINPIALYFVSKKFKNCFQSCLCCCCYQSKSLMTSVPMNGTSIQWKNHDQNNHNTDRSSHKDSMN
ASSAY_TEXT: Antagonist activity towards human recombinant Endothelin A receptor expressed in chinese hamster ovary (CHO) cells determined using [125I]ET1 as radioligand
ATTRIBUTE_MEASURED: IC50 (nM)

Look over these answered cases.
1. COC(=O)c1ccc(CN2C(=O)CN[C@](c3ccccc3)([C@H](Oc3nc(C)cc(C)n3)C(=O)O)c3ccccc32)cc1 (racemic) = 7.4
2. Cc1cc(C)nc(O[C@H](C(=O)O)[C@@]2(c3ccccc3)NCC(=O)N(Cc3ccccc3C)c3ccccc32)n1 (racemic) = 8.9
3. Cc1cc(C)nc(O[C@H](C(=O)O)[C@@]2(c3ccccc3)NCC(=O)N(CCC3CCCCC3)c3ccccc32)n1 (racemic) = 146
4. COc1ccc(CN2C(=O)CN[C@](c3cccc(-c4ccccc4)c3)([C@H](Oc3nc(C)cc(C)n3)C(=O)O)c3ccccc32)cc1 (racemic) = 3
5. O=C(O)[C@@H](Oc1ccccc1)[C@@]1(c2ccccc2)NCC(=O)N(Cc2c(Cl)cccc2Cl)c2ccccc21 (racemic) = 211
6. Cc1cc(C)nc(O[C@H](C(=O)O)[C@@]2(c3ccccc3)NCC(=O)N(Cc3cc(F)c(F)c(F)c3)c3ccccc32)n1 (racemic) = 11.8
7. Cc1cc(C)nc(O[C@H](C(=O)O)[C@@]2(c3ccccc3)NCc3c(C(=O)O)nc(C)n3-c3ccccc32)n1 (racemic) = 604
8. CCCCc1cccc([C@]2([C@H](Oc3nc(C)cc(C)n3)C(=O)O)NCC(=O)N(Cc3c(F)cccc3Cl)c3ccccc32)c1 (racemic) = 7.6

[a] COc1ccc(CN2C(=O)CN[C@](c3cccc(F)c3)([C@H](Oc3nc(C)cc(C)n3)C(=O)O)c3ccccc32)cc1 (racemic)
[b] Cc1cc(C)nc(O[C@H](C(=O)O)[C@@]2(c3ccccc3)NCC(=O)N(Cc3ccccc3F)c3ccccc32)n1 (racemic)
[c] Cc1cc(C)nc(O[C@H](C(=O)O)[C@@]2(c3ccccc3)NCC(=O)N(Cc3ccccc3OC(F)(F)F)c3ccccc32)n1 (racemic)
# rank by IC50, ascending (min first) API: response body holds the labels in the requested order.
b, a, c
(b: 3.5 nM, a: 9.1 nM, c: 98.6 nM)

* * *

ASSAYED_TARGET: Endothelin-1 receptor (Homo sapiens, UniProt P25101)
ASSAY_TEXT: Antagonist activity towards human recombinant Endothelin A receptor expressed in chinese hamster ovary (CHO) cells determined using [125I]ET1 as radioligand
ATTRIBUTE_MEASURED: IC50 (nM)
Write it as a number; the unit nM goes unstated.

1) Cc1cc(C)nc(O[C@H](C(=O)O)[C@@]2(c3ccccc3)NCC(=O)N(Cc3ccc(F)cc3F)c3ccccc32)n1 (racemic) = 6

Would you kindly look at the next entry?
response.value for Cc1cc(C)nc(O[C@H](C(=O)O)[C@@]2(c3cccc(-c4ccccc4)c3)NCC(=O)N(Cc3c(F)cc(F)cc3F)c3ccccc32)n1 (racemic) (field: IC50) = 7.9

* * *

ASSAYED_TARGET: Endothelin receptor type B (Homo sapiens)
Sequence (P24530 whole entry): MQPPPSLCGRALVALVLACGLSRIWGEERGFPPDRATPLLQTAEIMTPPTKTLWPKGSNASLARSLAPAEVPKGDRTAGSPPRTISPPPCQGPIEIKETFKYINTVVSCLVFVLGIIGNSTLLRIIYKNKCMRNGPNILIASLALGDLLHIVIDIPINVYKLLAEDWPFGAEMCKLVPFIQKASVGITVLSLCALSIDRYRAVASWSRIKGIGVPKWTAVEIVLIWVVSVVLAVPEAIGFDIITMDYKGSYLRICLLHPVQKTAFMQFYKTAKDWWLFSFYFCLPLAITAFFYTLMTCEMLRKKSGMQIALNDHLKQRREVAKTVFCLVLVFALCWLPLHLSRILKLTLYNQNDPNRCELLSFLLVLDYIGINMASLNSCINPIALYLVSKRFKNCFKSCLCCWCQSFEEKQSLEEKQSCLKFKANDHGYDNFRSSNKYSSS
ASSAY_TEXT: Antagonist activity towards human recombinant Endothelin B receptor expressed in chinese hamster ovary (CHO) cells determined using [125I]ET1 as radioligand
ATTRIBUTE_MEASURED: IC50 (nM)

Solved cases (4 shown):
1) Cc1cc(C)nc(O[C@H](C(=O)O)[C@@]2(c3ccccc3)NCC(=O)N(Cc3ccc(OC(F)(F)F)cc3)c3ccccc32)n1 (racemic) = 32.2
2) Cc1cc(C)nc(O[C@H](C(=O)O)[C@@]2(c3ccccc3)NCC(=O)N(Cc3cccc(F)c3)c3ccccc32)n1 (racemic) = 26.8
3) CCCCCCN1C(=O)CN[C@](c2ccccc2)([C@H](Oc2nc(C)cc(C)n2)C(=O)O)c2ccccc21 (racemic) = 39.9
4) Cc1cc(C)nc(O[C@H](C(=O)O)[C@@]2(c3ccccc3)NCC(=O)N(Cc3cc(F)ccc3F)c3ccccc32)n1 (racemic) = 32.9

[a] Cc1cc(C)nc(O[C@H](C(=O)O)[C@@]2(c3ccccc3)NCC(=O)N(Cc3ccc(F)c(F)c3)c3ccccc32)n1 (racemic)
[b] Cc1cc(C)nc(O[C@H](C(=O)O)[C@@]2(c3ccccc3)NCC(=O)N(CCc3ccccc3)c3ccccc32)n1 (racemic)
Given the listed records, identify the one among a and b with higher IC50. // caller expects the label of the chosen entry
a
